Listed here: items and their measured pIC50.
System Under Test: cloned recombinant human HDAC-1 (Homo sapiens)
Construct: made in house; host or cells: Baculovirus insect cell expression system
Run Description: Human HDAC-1 enzyme inhibition, Assay 1 ([3H]-acetylated histone substrate, scintillation counting)
Format: biochemical
Measurement Conditions: Table 5F; read-out: Human HDAC-1 IC50
pIC50: −log10 of the molar value.

{"Compound": "Nc1ccccc1NC(=O)c1ccc(CSc2nc3cc(OCCN4CCOCC4)ccc3[nH]2)cc1 [Cpd 236]", "System Under Test": "cloned recombinant human HDAC-1 (Homo sapiens)", "pIC50": 5.30}
{"Compound": "COc1cc(OC)cc(OCc2ccc(C(=O)Nc3ccccc3N)cc2)c1 [Cpd 395]", "System Under Test": "cloned recombinant human HDAC-1 (Homo sapiens)", "pIC50": 5.70}
{"Compound": "COc1cc(C2CCC(c3ccc(C(=O)Nc4ccccc4N)cc3)O2)cc(OC)c1OC (stereo not drawn) [compound 290]", "System Under Test": "cloned recombinant human HDAC-1 (Homo sapiens)", "pIC50": 4.96}
{"Compound": "Nc1ccccc1NC(=O)c1ccc(Cn2cnc3ccc(Cl)cc3c2=O)cc1 [Cpd 336]", "System Under Test": "cloned recombinant human HDAC-1 (Homo sapiens)", "pIC50": 6.00}
{"Compound": "COc1ccc(NCc2ccc(C(=O)Nc3ccccc3N)cc2)cc1OCc1cccnc1 [Cpd 405]", "System Under Test": "cloned recombinant human HDAC-1 (Homo sapiens)", "pIC50": 5.30}
{"Compound": "Nc1ccccc1NC(=O)c1ccc(CNc2nc(Cl)cc(N3CCOCC3)n2)cc1 [Cpd 411]", "System Under Test": "cloned recombinant human HDAC-1 (Homo sapiens)", "pIC50": 5.70}
{"Compound": "COc1ccc(C2C=CC(c3ccc(C(=O)Nc4ccccc4N)cc3)O2)cc1 (stereo not drawn) [Cpd 367]", "System Under Test": "cloned recombinant human HDAC-1 (Homo sapiens)", "pIC50": 5.22}
{"Compound": "Cc1c(Cc2ccc(C(=O)Nc3ccccc3N)cc2)sc(NC(=O)c2ccccc2)c1C#N [Cpd 360]", "System Under Test": "cloned recombinant human HDAC-1 (Homo sapiens)", "pIC50": 5.30}
{"Compound": "COc1ccc(N(Cc2ccc(C(=O)Nc3ccccc3N)cc2)C(=O)Nc2ccc(Oc3ccccc3)cc2)cc1OC [Cpd 374]", "System Under Test": "cloned recombinant human HDAC-1 (Homo sapiens)", "pIC50": 5.60}
{"Compound": "COc1cc(CNc2ccc3oc(C(=O)Nc4ccccc4N)cc3c2)cc(OC)c1OC [Cpd 592]", "System Under Test": "cloned recombinant human HDAC-1 (Homo sapiens)", "pIC50": 5.30}
{"Compound": "CCn1c(=O)n(Cc2ccc(C(=O)Nc3ccccc3N)cc2)c(=O)c2ccccc21 [Cpd 181]", "System Under Test": "cloned recombinant human HDAC-1 (Homo sapiens)", "pIC50": 6.30}
{"Compound": "Nc1ccccc1NC(=O)c1ccc(CNc2ccc3c(c2)OCCO3)cc1 [Cpd 400]", "System Under Test": "cloned recombinant human HDAC-1 (Homo sapiens)", "pIC50": 5.10}
{"Compound": "Nc1ccccc1NC(=O)c1ccc(Cn2nnc3ccc(Br)cc3c2=O)cc1 [Cpd 347]", "System Under Test": "cloned recombinant human HDAC-1 (Homo sapiens)", "pIC50": 5.70}
{"Compound": "COc1cc(NCc2ccc(C(=O)Nc3ccccc3N)cc2)ncn1 [Cpd 385]", "System Under Test": "cloned recombinant human HDAC-1 (Homo sapiens)", "pIC50": 5.52}
{"Compound": "Nc1ccccc1NC(=O)c1ccc(Cc2noc(-c3ccncc3)n2)cc1 [Cpd 358]", "System Under Test": "cloned recombinant human HDAC-1 (Homo sapiens)", "pIC50": 5.52}
{"Compound": "Nc1ccccc1NC(=O)c1ccc(CC2Cc3ccccc3C2=O)cc1 (stereo not drawn) [compound 272]", "System Under Test": "cloned recombinant human HDAC-1 (Homo sapiens)", "pIC50": 5.70}
{"Compound": "Cc1sc2ncn(Cc3ccc(C(=O)Nc4ccccc4N)cc3)c(=O)c2c1C [compound 259]", "System Under Test": "cloned recombinant human HDAC-1 (Homo sapiens)", "pIC50": 5.52}
{"Compound": "Nc1ccccc1NC(=O)c1ccc(CNc2nccc(N3CCOCC3)n2)cc1 [Cpd 435]", "System Under Test": "cloned recombinant human HDAC-1 (Homo sapiens)", "pIC50": 5.52}

====

System Under Test: cloned recombinant human HDAC-1 (Homo sapiens, UniProt Q13547)
Construct: made in house; host or cells: Baculovirus insect cell expression system
Sequence (Q13547 whole entry): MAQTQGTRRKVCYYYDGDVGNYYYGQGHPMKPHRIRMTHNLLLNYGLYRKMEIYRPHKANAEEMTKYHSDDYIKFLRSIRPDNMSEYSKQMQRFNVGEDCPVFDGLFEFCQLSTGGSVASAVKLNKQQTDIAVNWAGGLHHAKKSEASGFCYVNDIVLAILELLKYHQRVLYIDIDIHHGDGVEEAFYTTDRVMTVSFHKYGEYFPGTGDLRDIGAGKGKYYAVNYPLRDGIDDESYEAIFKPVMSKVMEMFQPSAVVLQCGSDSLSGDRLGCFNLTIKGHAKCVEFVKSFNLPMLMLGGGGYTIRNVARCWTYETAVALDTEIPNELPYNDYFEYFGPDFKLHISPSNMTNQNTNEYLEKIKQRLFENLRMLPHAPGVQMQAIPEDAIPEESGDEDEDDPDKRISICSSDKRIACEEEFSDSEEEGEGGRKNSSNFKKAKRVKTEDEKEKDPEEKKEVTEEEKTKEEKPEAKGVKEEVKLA
Run Description: Human HDAC-1 enzyme inhibition, Assay 1 ([3H]-acetylated histone substrate, scintillation counting)
Assay type: biochemical
Measurement Conditions: Table 5F; read-out: Human HDAC-1 IC50
pIC50: −log10 of the molar value.
Listed here: items and their measured pIC50.

{"Compound": "Nc1ccccc1NC(=O)c1ccc(CC2Oc3ccccc3NC2=O)cc1 (stereo not drawn) [compound 270]", "pIC50": 5.40}
{"Compound": "COc1ccccc1NCc1ccc(C(=O)Nc2ccccc2N)cc1 [Cpd 429]", "pIC50": 5.40}
{"Compound": "CNc1nc2ccc(NCc3ccc(C(=O)Nc4ccccc4N)cc3)cc2n1C [Cpd 580]", "pIC50": 5.40}
{"Compound": "Cc1ccc(Sc2ccc(C(=O)Nc3ccccc3N)cn2)cc1 [Cpd 464]", "pIC50": 5.40}
{"Compound": "CCCCn1cnc2c(NCc3ccc(C(=O)Nc4ccccc4N)cc3)nc(N)nc21 [Cpd 330]", "pIC50": 5.52}
{"Compound": "COCCn1cnc2c(NCc3ccc(C(=O)Nc4ccccc4N)cc3)nc(Cl)nc21 [Cpd 243]", "pIC50": 5.70}
{"Compound": "CC(C)(O)C#Cc1ccc(C(=O)Nc2ccccc2N)cc1 [Cpd 195]", "pIC50": 5.15}
{"Compound": "COc1cc(CNc2ccc3sc(C(=O)Nc4ccccc4N)cc3c2)cc(OC)c1OC [compound 590]", "pIC50": 5.70}
{"Compound": "COc1ccc2nc(SCc3ccc(C(=O)Nc4ccccc4N)cc3)[nH]c2c1 [compound 376]", "pIC50": 5.52}

====

Listed here: items and their measured log10(IC50).
System: HCT116 cells
Run Description: MTT assay
Assay type: cell-based
Measurement Conditions: Homo sapiens, HCT-116, 72 h, Table 5F; HCT116 cells, 72 hours
Quantity: log10(IC50) (log10 of the value in µM)

{"Compound": "Nc1ccccc1NC(=O)c1ccc(NCc2ccc(OC(F)(F)F)cc2)cc1", "System Under Test": "HCT116 cells", "Recorded Measurement": 0.00}
{"Compound": "COc1cc(OC)cc(OCc2ccc(C(=O)Nc3ccccc3N)cc2)c1", "System Under Test": "HCT116 cells", "Recorded Measurement": 0.00}
{"Compound": "CSc1ccc(NCc2ccc(C(=O)Nc3ccccc3N)cc2)cc1", "System Under Test": "HCT116 cells", "Recorded Measurement": -0.40}
{"Compound": "Nc1ccccc1NC(=O)c1ccc(CNc2ccc(OCc3cccnc3)cc2)cc1", "System Under Test": "HCT116 cells", "Recorded Measurement": 0.30}
{"Compound": "Nc1ccccc1NC(=O)c1ccc(CNc2ccc(SC(F)(F)F)cc2)cc1", "System Under Test": "HCT116 cells", "Recorded Measurement": 0.30}
{"Compound": "C=C(C)C#Cc1ccc(C(=O)Nc2ccccc2N)cc1", "System Under Test": "HCT116 cells", "Recorded Measurement": 1.20}
{"Compound": "N#C/N=C(\\NCc1ccc(C(=O)Nc2ccccc2N)cc1)Nc1ccncc1", "System Under Test": "HCT116 cells", "Recorded Measurement": 1.00}
{"Compound": "Nc1ccccc1NC(=O)c1ccc(-c2noc(CN3CCOCC3)n2)cc1", "System Under Test": "HCT116 cells", "Recorded Measurement": 1.00}
{"Compound": "COc1ccc(NCc2ccc(C(=O)Nc3cc(F)c(F)cc3N)cc2)cc1OC", "System Under Test": "HCT116 cells", "Recorded Measurement": 0.30}
{"Compound": "Nc1ccccc1NC(=O)c1ccc(CNc2nc3ccccc3[nH]2)cc1", "System Under Test": "HCT116 cells", "Recorded Measurement": -0.70}
{"Compound": "Nc1ccccc1NC(=O)c1ccc(-c2noc(-c3ccccc3)n2)cc1", "System Under Test": "HCT116 cells", "Recorded Measurement": 0.95}
{"Compound": "Nc1ccccc1NC(=O)c1ccc(CNc2ccc3c(c2)OCCO3)cc1", "System Under Test": "HCT116 cells", "Recorded Measurement": -0.52}
{"Compound": "COc1cccc(SCc2ccc(C(=O)Nc3ccccc3N)cc2)c1", "System Under Test": "HCT116 cells", "Recorded Measurement": 0.30}
{"Compound": "Nc1ccccc1NC(=O)c1ccc(CC2Cc3ccccc3C2=O)cc1 (centres unmarked)", "System Under Test": "HCT116 cells", "Recorded Measurement": -0.22}
{"Compound": "CC(=O)Nc1sc(Cc2ccc(C(=O)Nc3ccccc3N)cc2)cc1C#N", "System Under Test": "HCT116 cells", "Recorded Measurement": -0.52}
{"Compound": "CC(C)(O)C#Cc1ccc(C(=O)Nc2ccccc2N)cc1", "System Under Test": "HCT116 cells", "Recorded Measurement": 0.95}
{"Compound": "Cc1cc(C)nc(NCc2ccc(C(=O)Nc3ccccc3N)cc2)n1", "System Under Test": "HCT116 cells", "Recorded Measurement": 0.00}
{"Compound": "Nc1ccccc1NC(=O)c1ccc(Cn2nnc3ccc(Br)cc3c2=O)cc1", "System Under Test": "HCT116 cells", "Recorded Measurement": -0.22}
{"Compound": "Cc1nc2ccc(Br)cc2c(=O)n1Cc1ccc(C(=O)Nc2ccccc2N)cc1", "System Under Test": "HCT116 cells", "Recorded Measurement": -0.40}
{"Compound": "Nc1ccccc1NC(=O)c1ccc(CNc2cc(-c3ccccc3)[nH]n2)cc1", "System Under Test": "HCT116 cells", "Recorded Measurement": 0.90}
{"Compound": "COc1cc(NCc2ccc(C(=O)Nc3ccccc3N)cc2)cc(OC)c1OC", "System Under Test": "HCT116 cells", "Recorded Measurement": 1.04}
{"Compound": "COc1cc(NCc2ccc(C(=O)Nc3ccccc3N)cc2)cc(OC)c1", "System Under Test": "HCT116 cells", "Recorded Measurement": -0.22}
{"Compound": "COc1ccc2[nH]c(SCc3ccc(C(=O)Nc4cscc4N)cc3)nc2c1", "System Under Test": "HCT116 cells", "Recorded Measurement": -0.70}
{"Compound": "Nc1ccccc1NC(=O)c1ccc(CSc2ccccn2)cc1", "System Under Test": "HCT116 cells", "Recorded Measurement": 0.00}
{"Compound": "Nc1ccccc1NC(=O)c1ccc(CNc2ccc3oc(SCc4cccnc4)nc3c2)cc1", "System Under Test": "HCT116 cells", "Recorded Measurement": -0.52}
{"Compound": "Nc1ccccc1NC(=O)c1ccc(C#CC(c2ccc(Cl)cc2)N2CCOCC2)cc1 (centres unmarked)", "System Under Test": "HCT116 cells", "Recorded Measurement": 0.70}
{"Compound": "COc1ccc(N(Cc2ccc(C(=O)Nc3ccccc3N)cc2)C(=O)Nc2ccccc2)cc1OC", "System Under Test": "HCT116 cells", "Recorded Measurement": -0.40}
{"Compound": "Nc1ccccc1NC(=O)c1ccc(NC(=O)C(F)(F)F)cc1", "System Under Test": "HCT116 cells", "Recorded Measurement": 0.70}
{"Compound": "Nc1ccccc1NC(=O)c1ccc(CN2CCOCC2)cc1", "System Under Test": "HCT116 cells", "Recorded Measurement": 1.00}
